Values from PubChem BioAssay (NCI)

- Tested on: DLD-1 colon
- protocol.notes: NCI tumour cell line growth inhibition, 48 h
The entries below come with measured TGI values attached.

# compound, experimental.system, TGI
measured = [
    ("Cc1ccc(C(=O)/C=C/c2ccccc2Cl)cc1", "DLD-1 colon", "36 µM"),
    ("Cc1ccc(NC(=O)SCCC(=O)O)cc1NC(=O)SCCC(=O)O", "DLD-1 colon", "> 10 µM"),
    ("C(/COc1cccnc1)=N\\NC1=NCCN1", "DLD-1 colon", "> 100 µM"),
    ("CCCCCCCCCCCCCCCCCC(=O)NCCCNCCCNC(=O)CCCCCCCCCCCCCCCCC", "DLD-1 colon", "> 100 µM"),
    ("CCN(CC)CC(C)(C)C(=O)/C=C/c1ccc(C)cc1", "DLD-1 colon", "32.4 µM"),
    ("CC(C)OCN1COCN=C1NC#N", "DLD-1 colon", "57.6 µM"),
    ("CCC(=S)N(C)O", "DLD-1 colon", "> 100 µM"),
    ("Cc1ccccc1NC(=O)C(=O)Cc1nc2ccccc2s1", "DLD-1 colon", "> 100 µM"),
    ("C[n+]1c2ccccc2c(NC(CCC(N)=O)C(=O)O)c2ccccc21 (stereo not given)", "DLD-1 colon", "> 100 µM"),
    ("CC(C)(C)C1CCC2c3c([nH]c4ccccc34)C3C(=O)N(c4ccc(Br)cc4)C(=O)C3C2C1 (stereo not given)", "DLD-1 colon", "> 100 µM"),
    ("CC(=O)O[C@H]1CCC2[C@@H]3CCC4C(=O)c5oncc5C[C@]4(C)C3CC[C@@]21C (stereo not given in full)", "DLD-1 colon", "> 100 µM"),
    ("O=C1CCC(=O)c2cc(Br)ccc2N1", "DLD-1 colon", "> 100 µM"),
    ("O=C1OC(=O)C2C3CCC(O3)C12 (stereo not given)", "DLD-1 colon", "> 100 µM"),
    ("CCCCCN(CCCCC)C(=O)[C@@H](CCC(=O)OCc1ccccc1)NC(=O)c1cc2ccccc2[nH]1", "DLD-1 colon", "> 100 µM"),
    ("CC1CC(=O)C(C(O)CC2CC(=O)N(c3ccccc3)C(=O)C2)C(C)C1 (stereo not given)", "DLD-1 colon", "> 100 µM"),
]
